Tested on: Plasmodium berghei
EXPERIMENT DESCRIPTION: Screen against P. berghei liver stage (PbLuc), transformed with Luciferase, at 10uM
Format: functional, HepG2
RECORDED CONDITIONS: tested at 10 uM
Screen size: about 69,000 compounds; about 8,600 (12%) showed an effect of 50% or more. Shown is part of a subset that was picked to be rich in strong results.
ENDPOINT NAME: INHIBITION (%)
Write down the numeric answer in % and omit the unit.

May I ask what INHIBITION has been recorded for CN1CCN(Cc2nnc(C3CCN(S(C)(=O)=O)CC3)n2C)CC1 ?
-14.3

For the compound shown here, CC1(C(=O)NC2CCCC2)CCCN(c2ncccn2)C1 (stereo unspecified) , give the reported INHIBITION.
0.301

Report INHIBITION for Cc1cc(C)n(-c2ccc(CNCc3ccc(F)cc3F)cn2)n1 please.
37.55

# input compound: Cc1cc(N2CCN(C(=O)c3cc(Cl)c[nH]3)CC2)nc(N)n1 ; wanted: its INHIBITION
50.1

***
Which INHIBITION is reported for this compound? CN(C)Cc1cccc(-c2cccnc2C(=O)NCC2CC2)c1
18.4

Could you share which INHIBITION value was measured for CS(=O)(=O)NCCN1CCCC1c1noc(C2CC2)n1 (stereo unspecified) ?
0.914

For CN(C)c1cc(C(F)(F)F)nc(N2CCCC2c2ccccn2)n1 (stereo unspecified) , what is its reported INHIBITION?
-84.3

INHIBITION lookup needed for Cc1cc(N2CCN(C(=O)c3cc(Cl)c[nH]3)CC2)nc(C)n1 , thanks.
5.76

Requested read-out: INHIBITION. Entry: CCCc1nc(N2CCCN(c3ccncc3)CC2)c2cnn(C)c2n1
39.1

Endpoint output: INHIBITION of Cc1nc(CN2C(=O)CC3(CCN(C(N)=O)CC3)c3ccccc32)cs1 . Value?
36.4

# get_value(readout='INHIBITION', item= CSc1ccc(-c2cc(CN)nc3ccnn23)cc1 )
13

----------
Tested on: Plasmodium berghei
EXPERIMENT DESCRIPTION: Screen against P. berghei liver stage (PbLuc), transformed with Luciferase, at 10uM
Type: functional, HepG2
RECORDED CONDITIONS: tested at 10 uM
The whole screen tested about 69,000 compounds, of which about 8,600 (12%) showed an effect of 50% or more. Shown is part of a subset that was picked to be rich in strong results.
ENDPOINT NAME: INHIBITION (%)
Write the answer as a number in %, unit excluded.

A selection of reference data follows.
Fill blank: measured INHIBITION of the molecule Cn1ccnc1CN1CCN2C[C@H](Oc3cccc(F)c3)C[C@H]2C1 is ____.
38.5

Field request: INHIBITION | item: COc1c(CNCCNC(=O)c2cccs2)c(C)nn1C
-79.3

For the molecule CCS(=O)(=O)N[C@H]1CN(CC(C)(C)N2CCOCC2)C[C@@H]1C1CC1 , what INHIBITION is on record?
18.5

Given the entry CN(C)CCOCC1CN(CCN(C)C)Cc2ccnn2C1 (configuration not stated) , report its measured INHIBITION.
-4.23

Could you tell me which INHIBITION is on file for COc1cc(I)c(Cl)cc1C(=O)N(C)CC(C)(C)O ?
29

What value of INHIBITION has been reported for the following molecule? CS(=O)(=O)c1cn[nH]c1C1CCCN(C(=O)Cn2cccn2)C1 (configuration not stated)
2.71

Item O=C(CCOc1ccccc1F)N1CCCC1Cn1cccn1 (configuration not stated) has what recorded INHIBITION?
29.2

Which INHIBITION reading was recorded for the molecule Cc1nnsc1C(=O)N1CCC(c2nc3ccccc3[nH]2)CC1 ?
65.4

Others:
Give its INHIBITION value. Item: Fc1cccc(O[C@@H]2C[C@H]3CN(Cc4ccccn4)CCN3C2)c1
85.4

What measured INHIBITION goes with Cc1nc(CN2CCCC2Cn2cncn2)no1 (configuration not stated) ?
34.95

Find the recorded INHIBITION belonging to Cc1cnc(C)c(-c2cc(O)c3c(c2)CN(c2nccs2)CCO3)n1 and report it.
28.5

Quick one: INHIBITION of CC(CN1CCOCC1)NC(=O)N1CCN(S(C)(=O)=O)CC1 (configuration not stated) ?
-34.4

----------
Tested on: Plasmodium berghei
EXPERIMENT DESCRIPTION: Screen against P. berghei liver stage (PbLuc), transformed with Luciferase, at 10uM
Assay type: functional, HepG2
RECORDED CONDITIONS: tested at 10 uM
The campaign covered roughly 69,000 compounds. About 8,600 (12%) showed an effect of 50% or more. Many of the other results were omitted from the sample, so strong results are more common in it than they were.
ENDPOINT NAME: INHIBITION (%)
Output spec: scalar in %, unitless text.

# example entries with known answers
Query (compound): O=C1NC(c2cccnc2)=NC12CCN(CCCc1ccccc1)CC2 ; field requested: INHIBITION
58.7

// INHIBITION lookup, key: CC1=NC2(CCN(CC(C)c3ccccc3)CC2)C(=O)N1 (stereo unspecified)
14

INHIBITION lookup needed for Cc1nc2ccccc2n1CCNCc1cccc(O)c1 , thanks.
-57.5

Fill in: INHIBITION of CC(CN1CCC2(CC1)N=C(N(C)C)NC2=O)c1ccccc1 (stereo unspecified) is ___
0.825

Can you share its INHIBITION? I mean this compound: Cc1cnn(CC2CCCN2C(=O)c2ccccc2-n2cnnn2)c1 (stereo unspecified)
-33.9

Here's the next entry for you.
What INHIBITION value was documented for this compound, CN1CCCc2ccc(S(=O)(=O)NC(=O)C3CC=CC3)cc21 ?
75.4

----------
Tested on: Plasmodium berghei
EXPERIMENT DESCRIPTION: Screen against P. berghei liver stage (PbLuc), transformed with Luciferase, at 10uM
Format: functional, HepG2
RECORDED CONDITIONS: tested at 10 uM
Out of some 69,000 compounds screened, about 8,600 (12%) showed an effect of 50% or more. The sample holds strong results, similar compounds and a random draw of the others, so the mix is not that of the screen.
The label Yes is reserved for INHIBITION strictly under 40%; No covers values equal to or above it.

is_below(INHIBITION, 40%) for Cc1nc2c(cc1C(=O)O)CCN(CC1CC1)CC2 ?
No

More entries:
Dear colleague, could you confirm whether INHIBITION of CNc1nc(C2CCN(C(=O)CC3CCCC3)C2)nc2c1CN(C)CC2 (stereo unspecified) falls below 40%? Thanks.
No

Is 40% strictly greater than the compound's reported INHIBITION? compound: CNc1nc(C2CCCN2C(C)=O)nc2c1CCN(CC1CC1)C2 (stereo unspecified)
Yes

Problem: For the compound CC(C)Nc1nc2c(cc1C(=O)NCC1CC1)CCN(C)CC2 , is INHIBITION under 40%?
Yes

Lab note: INHIBITION threshold 40%. Does this compound come in strictly under it? CN(C)C(=O)c1cc2c(nc1NCC1CC1)CCN(CC1CC1)CC2
Yes

Say whether its INHIBITION is strictly beneath 40%. Entry: CNC(=O)CN1CCCC12CCN(C(=O)c1ccsc1)CC2
Yes

Is INHIBITION of CNc1nc(C2CCCN2C(C)=O)nc2c1CN(C1CCCC1)CC2 (stereo unspecified) strictly below 40%?
No

----------
As shown below, each of these compounds has a reported INHIBITION value.
Test system: Plasmodium berghei
EXPERIMENT DESCRIPTION: Screen against P. berghei liver stage (PbLuc), transformed with Luciferase, at 10uM
Assay type: functional, HepG2
RECORDED CONDITIONS: tested at 10 uM
Hit rate of the full screen: of about 69,000 compounds, about 8,600 (12%) showed an effect of 50% or more. This excerpt belongs to a sample that is enriched for strong results.
Supply the numeric figure in %, leaving out any unit text.

# example entries with known answers
Tell me the measured INHIBITION of Cc1n[nH]cc1CNCC1(c2ccc3c(c2)OCO3)CCOCC1 , please.
-21.4

For the compound shown here, CC(C)Nc1nc(O)cc(C2CC(=O)N(Cc3ccccn3)C2)n1 (stereo unspecified) , give the reported INHIBITION.
-23.8

Form field: reported INHIBITION of Cc1c(NC(=O)CN2CCC(Oc3cnccn3)CC2)cnn1C
0.696

New cases:
# get_value(readout='INHIBITION', item= CCS(=O)(=O)N1C[C@@H](O)[C@H](Oc2cccc(F)c2)C1 )
-18.8

What value of measured INHIBITION is listed for Cc1csc(CNC(=O)NCC2(c3ccc4c(c3)OCO4)CC2)n1 ?
2.29

Quick one: INHIBITION for CC(C)NC(=O)CCN1CCCC1c1cccc2c1OCCO2 (stereo unspecified) ?
35.4
